system: LNCaP-FGC
Attribute measured: pIC50
Give bare numbers, as −log10 of the molar value.

Reported pIC50 for CCc1cccc2c3c([nH]c12)C(CC)(CC(=O)O)OCC3 (centres unmarked) [Etodolac R/S] : what is it?
3.40

Others:
Reported pIC50 for CCc1cccc2c3c([nH]c12)C(CC)(CC(=O)O)OCC3 (centres unmarked) [Etodolac S] : what is it?
3.66

* * *

For each entry below, report its IC50 value.
system: Alva-31

Reported IC50 for CCc1cccc2c3c([nH]c12)C(CC)(CC(=O)O)OCC3 (centres unmarked) [Etodolac R/S] : what is it?
> 1 mM

Pending compound:
Reported IC50 for CCc1cccc2c3c([nH]c12)C(CC)(CC(=O)O)OCC3 (centres unmarked) [Etodolac S] : what is it?
> 1 mM

* * *

test system: A549; assay: Cytotoxicity by MTT assay, confirmed by FACS propidium iodide uptake; details: read-out: IC50 cytotoxicity; A549 (lung); MTT after three days continuous exposure
pIC50: −log10 of the molar value.
Attribute measured: pIC50

State its pIC50 on A549: CCc1cccc2c3c([nH]c12)[C@@](CC)(CC(=O)O)OCC3
< 3.00

* * *

system: HCT-116; experiment: Cytotoxicity by MTT assay, confirmed by FACS propidium iodide uptake; conditions: read-out: IC50 cytotoxicity; HCT-116 (colon); MTT after three days continuous exposure
Attribute measured: pIC50
Numbers only, as −log10 of the molar value.

Reported pIC50 for CCc1cccc2c3c([nH]c12)[C@@](CC)(CC(=O)O)OCC3 : what is it?
3.55

* * *

The reader will find IC50 measurements below, all made with A549.

Reported IC50 for CCc1cccc2c3c([nH]c12)C(CC)(CC(=O)O)OCC3 (centres unmarked) [Etodolac S] : what is it?
> 1000 µM

Pending compound:
Reported IC50 for CCc1cccc2c3c([nH]c12)C(CC)(CC(=O)O)OCC3 (centres unmarked) [Etodolac R/S] : what is it?
> 1000 µM

* * *

system: HCT-116
For each entry below, report its IC50 value.
One number for each entry, in µM.

Reported IC50 for CCc1cccc2c3c([nH]c12)C(CC)(CC(=O)O)OCC3 (centres unmarked) [Etodolac S] : what is it?
420

Pending compound:
Reported IC50 for CCc1cccc2c3c([nH]c12)C(CC)(CC(=O)O)OCC3 (centres unmarked) [Etodolac R/S] : what is it?
450

* * *

test system: SW260
Attribute measured: IC50 (µM)
One number for each entry, in µM.

Reported IC50 for CCc1cccc2c3c([nH]c12)C(CC)(CC(=O)O)OCC3 (stereo not shown) [Etodolac R/S] : what is it?
1000

* * *

test system: MDA-MB-231; experiment: Cytotoxicity by MTT assay, confirmed by FACS propidium iodide uptake; settings: read-out: IC50 cytotoxicity; MDA-MB-231 (breast); MTT after three days continuous exposure
pIC50: −log10 of the molar value.
Attribute measured: pIC50

Reported pIC50 for CCc1cccc2c3c([nH]c12)[C@@](CC)(CC(=O)O)OCC3 : what is it?
< 3.00

* * *

system: Alva-31; test: Cytotoxicity by MTT assay, confirmed by FACS propidium iodide uptake; settings: read-out: IC50 cytotoxicity; Alva-31 (prostate); MTT after three days continuous exposure
Attribute measured: IC50

Reported IC50 for CCc1cccc2c3c([nH]c12)[C@@](CC)(CC(=O)O)OCC3 [Etodolac R] : what is it?
> 1000 µM
